All figures here come from ChEMBL document CHEMBL4043117.

# ASSAY_PROTOCOL: Stability in PBS buffer at pH 8 assessed as half life for compound hydrolysis by HPLC method
# Type: physicochemical
MEASURED_QUANTITY: half-life

> print(dat)
                         structure.notation    reported
1  CC(C)C[C@@H](CNC(=O)[C@H](CC(C)C)NC(=O)[C@H](CC(C)C)NC(=O)OCc1ccccc1)S(=O)(=O)F    5 to 7 h
2  CC(C)C[C@@H](CS(=O)(=O)F)NC(=O)[C@H](CC(C)C)NC(=O)[C@H](CC(C)C)NC(=O)OCc1ccccc1  10 to 12 h
3  CC(C)C[C@@H](CNC(=O)[C@H](CC(C)C)NC(=O)[C@H](CC(C)C)NC(=O)[C@H](CC(C)C)NC(=O)OCc1ccccc1)S(=O)(=O)F    5 to 7 h

Q: half-life for CC(C)C[C@@H](CS(=O)(=O)F)NC(=O)[C@H](CC(C)C)NC(=O)[C@H](CC(C)C)NC(=O)[C@H](CC(C)C)NC(=O)OCc1ccccc1 ?
A: 10 to 12 h

----------
# Species on record: Homo sapiens
# ASSAY_PROTOCOL: Inhibition of human erythrocyte 20S proteasome at 0.002 to 400 uM using Suc-LLVY-AMC substrate incubated for 1 hr by fluorescence assay
The source made the active and inactive calls. The rule behind the calls is not given here.
Valid outcomes are listed here; reply with one: active, inactive

Q: Per the assay record, what outcome was assigned to CC(C)C[C@@H](CNC(=O)[C@H](Cc1ccccc1)NC(=O)[C@H](CC(C)C)NC(=O)[C@H](CCc1ccccc1)NC(=O)CN1CCOCC1)S(=O)(=O)F ?
A: inactive

Q: For CC(C)C[C@@H](CS(=O)(=O)F)NC(=O)[C@H](CC(C)C)NC(=O)[C@H](CC(C)C)NC(=O)OCc1ccccc1 then?
A: active

----------
# ASSAY_PROTOCOL: Stability in PBS buffer at pH 7.4 assessed as half life for compound hydrolysis by HPLC method
# Format: physicochemical
Property: half-life; scope: individual molecules

Q: half-life for CC(C)C[C@@H](CS(=O)(=O)F)NC(=O)[C@H](CC(C)C)NC(=O)[C@H](CC(C)C)NC(=O)[C@H](CC(C)C)NC(=O)OCc1ccccc1 ?
A: 10 to 12 h

----------
# ASSAY_PROTOCOL: Stability in PBS buffer at pH 6.5 assessed as half life for compound hydrolysis by HPLC method
# Format: physicochemical
MEASURED_QUANTITY: half-life

Completed entries (count: 3):
> print(dat)
                         structure.notation  measured.quantity    reported
1  CC(C)C[C@@H](CNC(=O)[C@H](CC(C)C)NC(=O)[C@H](CC(C)C)NC(=O)OCc1ccccc1)S(=O)(=O)F          half-life    5 to 7 h
2  CC(C)C[C@@H](CNC(=O)[C@H](CC(C)C)NC(=O)[C@H](CC(C)C)NC(=O)[C@H](CC(C)C)NC(=O)OCc1ccccc1)S(=O)(=O)F          half-life    5 to 7 h
3  CC(C)C[C@@H](CS(=O)(=O)F)NC(=O)[C@H](CC(C)C)NC(=O)[C@H](CC(C)C)NC(=O)[C@H](CC(C)C)NC(=O)OCc1ccccc1          half-life  10 to 12 h

API: the following record is the query input.
Q: half-life for CC(C)C[C@@H](CS(=O)(=O)F)NC(=O)[C@H](CC(C)C)NC(=O)[C@H](CC(C)C)NC(=O)OCc1ccccc1 ?
A: 10 to 12 h

----------
# Species: Homo sapiens
# ASSAY_PROTOCOL: Inhibition of human erythrocyte 20S proteasome at 0.002 to 400 uM using Suc-LLVY-AMC substrate incubated for 1 hr by fluorescence assay
Activity calls are given as the source filed them. No cut-off for these calls is given here.
Valid outcomes are listed here; reply with one: active, inactive

A selection of reference data follows.
> print(dat)
                         structure.notation  class.name
1  CC(C)C[C@H](NC(=O)OCc1ccccc1)C(=O)N[C@@H](CC(C)C)C(=O)NC[C@H](Cc1ccccc1)S(=O)(=O)F    inactive
2  CC(C)C[C@H](NC(=O)[C@H](CCc1ccccc1)NC(=O)CN1CCOCC1)C(=O)N[C@@H](Cc1ccccc1)C(=O)NC[C@H](Cc1ccccc1)S(=O)(=O)F    inactive
3  CC(C)C[C@@H](CNC(=O)[C@H](CC(C)C)NC(=O)[C@H](CC(C)C)NC(=O)[C@H](CC(C)C)NC(=O)OCc1ccccc1)S(=O)(=O)F    inactive

Q: Per the assay record, what outcome was assigned to CC(C)C[C@@H](CNC(=O)[C@H](CC(C)C)NC(=O)[C@H](CC(C)C)NC(=O)OCc1ccccc1)S(=O)(=O)F ?
A: inactive

Q: For CC(C)C[C@@H](CS(=O)(=O)F)NC(=O)[C@H](CC(C)C)NC(=O)[C@H](CC(C)C)NC(=O)[C@H](CC(C)C)NC(=O)OCc1ccccc1 then?
A: active

Q: For CC(C)C[C@H](NC(=O)OCc1ccccc1)C(=O)N[C@@H](CC(C)C)C(=O)N[C@@H](CC(C)C)C(=O)NC[C@H](Cc1ccccc1)S(=O)(=O)F then?
A: inactive

----------
# ASSAY_PROTOCOL: Stability in PBS buffer at pH 7.4 assessed as half life for compound hydrolysis by HPLC method
# Type: physicochemical
MEASURED_QUANTITY: half-life

Completed entries (count: 2):
> print(dat)
                         structure.notation  reported
1  CC(C)C[C@@H](CNC(=O)[C@H](CC(C)C)NC(=O)[C@H](CC(C)C)NC(=O)[C@H](CC(C)C)NC(=O)OCc1ccccc1)S(=O)(=O)F  5 to 7 h
2  CC(C)C[C@@H](CNC(=O)[C@H](CC(C)C)NC(=O)[C@H](CC(C)C)NC(=O)OCc1ccccc1)S(=O)(=O)F  5 to 7 h

API: the following record is the query input.
Q: half-life for CC(C)C[C@@H](CS(=O)(=O)F)NC(=O)[C@H](CC(C)C)NC(=O)[C@H](CC(C)C)NC(=O)OCc1ccccc1 ?
A: 10 to 12 h
